Assay: In situ single-pass jejunal perfusion of gemcitabine
Format: in vivo, C57BL/6 mice
Settings: both, C57BL/6, mouse, other: in situ single-pass jejunal perfusion, pH 6, effective permeability (Peff), 100 μM gemcitabine, jejunum, C57BL/6 mice, analyzed by UPLC

{"columns": ["molecule.smiles", "Papp at 90 min, 100 μM (×10⁻⁶ cm/s)"],
 "data": [
  ["Nc1ccn([C@@H]2O[C@H](CO)[C@@H](O)C2(F)F)c(=O)n1", 114]
]}
